Property: pKd; scope: individual binders
target: BoNT/B4 (Clostridium botulinum); test: yeast scFv FACS
pKd: −log10 of the molar value.

binder	pKd
18A6 scFv (scFv) scFv: EVQLQQSGPELVKPGASVKISCKASGYTFTDNYINWVKQRPGQGLEWIGWIYPGSGNTKYNEKFKGKATLTVDTSSNTAYMQLTGLASDDSAVYFCARVNFYVSWDYWGQGTSVTVSSVDLKSGGSTSGSGKPGSGEGSSGSAREIVLTQSPAIMSASPGEKVTMTCSASSSISYMHWFQQKPGMSPKRRIFDTSKLASGVPARFSGSGSGTSYSLTISSMEAEDAGTYYCHQRSSYPFTFGGGTKLELK	7.51
19D22 scFv (scFv) scFv: QIQLLQSGAELVRPGTSVKMSCKAAGYPFTSYWMGWVKQRPGHGLEWIGDIYPGGPYTNYNEKFKGKATLTADTSSSTAYMQFSSLTSEDSAIYYCALYGQVGSYAMDYWGQGTSVTVSSVDLKSGGSTSGSGKPGSGEGSSGSARQIVLTQSPAIMSASPGEKVTMTCSASSSVSYMYWYQQKPGSSPRLLIYDTSNLASGVPVRFSGSGSGTSYSLTISRMEAEDAATYYCQQWSSYPPITFGAGTKLEIK	8.28
19A9 scFv (scFv) scFv: EVQLQQPGSELARPGASVKLSCKASGYTFTSYPITWVKQTTGQGLEWIGEIYPRSGNTYYNEKFKGKATLTADKSSSTAYMELRSLTSEDSAVYFCARDYYDYAGGGRGYWGQGTTLTVSSVDLKSGGSTSGSGKPGSGEGSSGSARDIVLTQSPAIMSASPGGKITITCSASSSVSYMHWFQQKPGTSPKLWIYSTSNLASGVPARFSGSGSGTSYSLTISRMEAEDAATYYCQQRSSYPYTFGGGTKLEIK	8.98
19B6 scFv (scFv) scFv: QVQLQQSGAELVKPGASVKISCKASGYTFTDNYINWVKQRPGQGLEWIGWIHPGSGNAKYNEKFRAKATLTVDTSSNTAYMQLSSLTSEDSAVYFCARVGFRVNFDYWGQGTTLTVSSVDLKSGGSTSGSGKPGSGEGSSGSARQIVLTQSPAIMSASPGEKVTMTCSASSSLSYVHWYQQKPGSSPKPWIYATSNLVSGVPARFSGSRSGTSYSLTISSMEAEDAATYYCQQWSSYPPTFGAGTKLEIK	7.36
19D2 scFv (scFv) scFv: EVQLQQSGGELARPGSSVKLSCKASGYSFTGYSLTWVKQTPGQGLEWIGEIYPRSGNTYYNENFQGKATLTADESSSTAYMELRSLTSEDSAVYFCARDFYDYDGGGRGYWGQGTTLTVSSVDLKSGGSTSGSGKPGSGEGSSGSARDIVMTQTPAIMSASPGEKVTITCSASSSVSYMHWYQQKPGTSPKLWIYSTSNLASGVPARFSGSGSGTSYSLTISRMEAEDAATYYCQQRSSYPYTFGGGTKLEIK	8.74
18D10 scFv (scFv) scFv: QVQLKQSGIEVMKPGASVKLSCKASGYPFTAYWIEWVKQRPGHGLEWIGEFLPGGISTNFNEKFKGKATFSADTSSNSAYIQLNSLTTEDSAIYYCVLTGTGFDYWGQGTSVTVSSVDLKSGGSTSGSGKPGSGEGSSGSARENVLTQSPAIMSASPGEKVTMTCSASSSVSYMHWYQQKSGTSPKRWIYDTSKLASGVPARFSGSGSGTSYSLTISSMEAEDAATYYCQQWSSNPLTFGAGTKLELK	8.38
18E5 scFv (scFv) scFv: EVQLQESGPELVKPGASVKISCKASGYTFTDHNMDWVKQSLGKSLEWIGDINPNNGGAVYNQNFKGKATLTVDKSSSTAYMELRSLTSEDTAVYYCARYGYYGYFDYWGQGTTLTVSSVDLKSGGSTSGSGKPGSGEGSSGSARQIVLTQSPAIMSASPGEKVTMTCRASSSVSSSYLHWYQQKPGSSPKLWIYSTSNLASGVPARFSGSGSGTSYSLTISSVEAEDAATYYCQQYDSSPSTFGAGTKLEIK	8.87
16B3 scFv (scFv) scFv: EVQLQQSGPELVKPGASVKITCKASGYTFTDNNMDWVKQSHGKSLEWIGDINPNNGGSIYNQKFKGKASLTLDKSSSTAYMELRSLTSEDTAVYYCARWGYYGSLAYWGQGTLVTVSSVDLKSGGSTSGSGKPGSGEGSSGSARQNVLTQSPAIMSASPGEKVTMTCSASSSVSSRYLHWYQQKSGASPKLWIYGTSNLASGVPARFSGSGSGTSYSLTISSVEAEDAATYYCQQYHSDPLTFGGGTKLEIK	9.15

Value source: patent US20220089784A1
